Known pEC50 of a selection of molecules
Tested on: IL-6 levels in human whole blood stimulated with a TLR2 agonist
method: IRAK4 Whole Blood Assay (lipoteichoic acid/TLR2-stimulated IL-6)
Type: cell-based
studyConditions: Homo sapiens, lipoteichoic acid 10 μg/mL, IL-6 readout
On this scale, pEC50 is minus log10 of a concentration expressed in M (mol/L).

// known answers, use as guide
Which pEC50 is reported for this molecule? `CC(C)(O)[C@H](F)CNC(=O)c1cnc(-c2cnn3cc(Cl)cnc23)cc1NCCCO`
6.57

Entry `CC(F)(F)Cn1cc(Nc2cc(-c3cnc4cc(C#N)cnn34)ncc2C(=O)NC[C@@H](F)C(C)(C)F)cn1` : reported pEC50 = ?
6.25

Request the reported pEC50 associated with `CC(C)(O)CNc1cc(-c2cnn3cc(Cl)cnc23)ncc1C(=O)NC[C@@H](F)C(C)(C)O`
6.46

Quick one: pEC50 of `CC(C)(F)[C@H](F)CNC(=O)c1cnc(-c2cnc3cc(C#N)cnn23)cc1Nc1cnn(CC(F)F)c1` ?
6.74

Returns the measured pEC50 for the input molecule. Input: `Cc1cc(Nc2cc(-c3cnn4cc(C#N)cnc34)ncc2C(=O)NC[C@@H](F)C(C)(C)O)n(C)n1`
6.42

Recorded pEC50 for `CC(C)(O)[C@H](F)CNC(=O)c1cnc(-c2cnn3cc(C#N)cnc23)cc1N[C@@H](CO)Cc1ccccc1` , please?
5.79

New cases:
Could you share which pEC50 value was measured for `CC(C)n1cc(Nc2cc(-c3cnn4cc(Cl)cnc34)ncc2C(=O)NC[C@@H](F)C(C)(C)O)cn1` ?
6.24
